Values compiled from patent US10556936B2.

Please respond with reported % responding donors in BAT Assay for every item in the list.
tested on: basophils in whole blood from HDM allergic donors; experiment: Basophil Activation Test (BAT); type: cell-based, human; conditions: responding donors of tested HDM allergic donors; whole blood stimulated 1 h
Marks after values point to notes of the source that are not given here.

// below: answered molecules
3 (protein, listed as Dermatophagoides pteronyssinus) MAIDGKYQMESSEHFEEFVKEMGLDVDMTNVDLSKTSTMEICKDGDVYHIKSETAGIAHEIKFKVGEEFEDDMNGHKFKNVVTMECDNKMVQKKTSADGGKVVNVVREFTDAGCTVKSTYNTVTWTRVYKRM	0 of 16
6 (protein, listed as Dermatophagoides pteronyssinus) MVKAVVVLKGDPNVSGTIFFEQQDNGPVKVTGSVQGLKPGLHGFHVHEFGDNTNGCTSAGAHYNPLNKTHGAPNDEERHVGDLGNIEANDKGVANVVIEDSLISLTGEKSIVGRSLVVHADPDDLGRGGHELSKTTGNAGGRLVCGVIGVTK	1 of 8*
31 (protein, listed as Dermatophagoides pteronyssinus) MAKFNYLPVDVQEELRNTANAIVSVGKGILAADESTGTIGKRFADINVENVEQNRQAYRQLLFYSEGIEQYISGVILFDETVYQKDDKGVPFPELLKKKGIIPGIKVDTGVVTLQGTNGESTTQGLDNLTKRCQEYYNQGCRFAKWRCVLKIGQDEPSSLAIVENANVLARYASCCQQARIVPIVEPEILPDGDHNLERCQKVTETVLAAVYKALNDHHVYLEGTLLKPNMVTPGQSCPQKASPQEVAQATVTALQRTVPAAVPGIVFLSGGQSEEEASVNLNAINQYQGKKPWALSFSYGRALQASALRAWQGKPENIGAGQKELLQRAKANVLAHKGQYVAGSIPSLASAKSNFVAQHKY	0 of 8
29 (protein, listed as Dermatophagoides pteronyssinus) MVKIGINGFGRIGRLVLRAAIKKGVEVAAINDPFLDVKYMVYMFKFDSTHGRYQGEVKEEGGLLVVDGQKIQVFQERNPAEIPWGKVGADYVVESTGVFTTIEKAKAHLAGGAKKVIISAPSADAPMYVMGVNHDKYDPKQQIISNASCTTNCLAPLAKVINDKFGIENGLMTTVHAITATQKTVDGPSGKLWRDGRGAGQNIIPASTGAAKAVGKVIPELNGKLTGMALRVPVPDVSVVDLTVTLKNPASYDEIKAAVKAAAESDHWKGILEYTDEEVVSSDFISDTHSSIFDAKAGIALTPTFVKLIAWYDNEFGYSNRVVDLIKYVASK	1 of 8*
13 (protein, listed as Dermatophagoides farinae) KKTKDCDVEKPIRECLKNGLLRYSDGQKINQFPDSIEDLNRACEELKKSETCARNFIDTCTETSYEKRSLDSLLDGIQRVLKRLCRSQSKKEQLLQNVGCANSVVQDTKLCLKNYRMLVFAANKLNDKSKIMRILCCKSRKVAPCIGEAMKSKGNAVCSAKNIDYFREMHQNIKAEMTAVVCSDFERDQCENVEVPAITEAEYKDQNIFNPLRDLYKKVILA	0 of 16

Please turn your attention to the following entry.
Task item: So what's the measured % responding donors in BAT Assay for this one? 25 (protein, listed as Dermatophagoides pteronyssinus) MSSSSGKKYDFSGKVALVTGSSSGIGAAIALQFAQYGAQVTITGRDAAALESVAKRIEAESGHQPLQIVGNLLDQSLPAKLIDGTISKYGRLDFLVNNAGFSTQHRDIHDEKLMEAFDQVYGLNVRAVVQLSQLAATHLEKSKGNIINISSNLSMMPVHIIYSSSKAALDMITKTMAMEFGKKGVRVNSINPGPVATQFMRSLGMPVTFLKENEEFVKELTLLKFVAQPVEIANLASFLASDDARNMTGSIVVNDTGSLLAPRVDFKKLDEIKKK
Reply: 1 of 8*
